# measuredTarget: NaV1.6 (Homo sapiens (Human))
# Sequence (Q9UQD0 whole entry, looked up): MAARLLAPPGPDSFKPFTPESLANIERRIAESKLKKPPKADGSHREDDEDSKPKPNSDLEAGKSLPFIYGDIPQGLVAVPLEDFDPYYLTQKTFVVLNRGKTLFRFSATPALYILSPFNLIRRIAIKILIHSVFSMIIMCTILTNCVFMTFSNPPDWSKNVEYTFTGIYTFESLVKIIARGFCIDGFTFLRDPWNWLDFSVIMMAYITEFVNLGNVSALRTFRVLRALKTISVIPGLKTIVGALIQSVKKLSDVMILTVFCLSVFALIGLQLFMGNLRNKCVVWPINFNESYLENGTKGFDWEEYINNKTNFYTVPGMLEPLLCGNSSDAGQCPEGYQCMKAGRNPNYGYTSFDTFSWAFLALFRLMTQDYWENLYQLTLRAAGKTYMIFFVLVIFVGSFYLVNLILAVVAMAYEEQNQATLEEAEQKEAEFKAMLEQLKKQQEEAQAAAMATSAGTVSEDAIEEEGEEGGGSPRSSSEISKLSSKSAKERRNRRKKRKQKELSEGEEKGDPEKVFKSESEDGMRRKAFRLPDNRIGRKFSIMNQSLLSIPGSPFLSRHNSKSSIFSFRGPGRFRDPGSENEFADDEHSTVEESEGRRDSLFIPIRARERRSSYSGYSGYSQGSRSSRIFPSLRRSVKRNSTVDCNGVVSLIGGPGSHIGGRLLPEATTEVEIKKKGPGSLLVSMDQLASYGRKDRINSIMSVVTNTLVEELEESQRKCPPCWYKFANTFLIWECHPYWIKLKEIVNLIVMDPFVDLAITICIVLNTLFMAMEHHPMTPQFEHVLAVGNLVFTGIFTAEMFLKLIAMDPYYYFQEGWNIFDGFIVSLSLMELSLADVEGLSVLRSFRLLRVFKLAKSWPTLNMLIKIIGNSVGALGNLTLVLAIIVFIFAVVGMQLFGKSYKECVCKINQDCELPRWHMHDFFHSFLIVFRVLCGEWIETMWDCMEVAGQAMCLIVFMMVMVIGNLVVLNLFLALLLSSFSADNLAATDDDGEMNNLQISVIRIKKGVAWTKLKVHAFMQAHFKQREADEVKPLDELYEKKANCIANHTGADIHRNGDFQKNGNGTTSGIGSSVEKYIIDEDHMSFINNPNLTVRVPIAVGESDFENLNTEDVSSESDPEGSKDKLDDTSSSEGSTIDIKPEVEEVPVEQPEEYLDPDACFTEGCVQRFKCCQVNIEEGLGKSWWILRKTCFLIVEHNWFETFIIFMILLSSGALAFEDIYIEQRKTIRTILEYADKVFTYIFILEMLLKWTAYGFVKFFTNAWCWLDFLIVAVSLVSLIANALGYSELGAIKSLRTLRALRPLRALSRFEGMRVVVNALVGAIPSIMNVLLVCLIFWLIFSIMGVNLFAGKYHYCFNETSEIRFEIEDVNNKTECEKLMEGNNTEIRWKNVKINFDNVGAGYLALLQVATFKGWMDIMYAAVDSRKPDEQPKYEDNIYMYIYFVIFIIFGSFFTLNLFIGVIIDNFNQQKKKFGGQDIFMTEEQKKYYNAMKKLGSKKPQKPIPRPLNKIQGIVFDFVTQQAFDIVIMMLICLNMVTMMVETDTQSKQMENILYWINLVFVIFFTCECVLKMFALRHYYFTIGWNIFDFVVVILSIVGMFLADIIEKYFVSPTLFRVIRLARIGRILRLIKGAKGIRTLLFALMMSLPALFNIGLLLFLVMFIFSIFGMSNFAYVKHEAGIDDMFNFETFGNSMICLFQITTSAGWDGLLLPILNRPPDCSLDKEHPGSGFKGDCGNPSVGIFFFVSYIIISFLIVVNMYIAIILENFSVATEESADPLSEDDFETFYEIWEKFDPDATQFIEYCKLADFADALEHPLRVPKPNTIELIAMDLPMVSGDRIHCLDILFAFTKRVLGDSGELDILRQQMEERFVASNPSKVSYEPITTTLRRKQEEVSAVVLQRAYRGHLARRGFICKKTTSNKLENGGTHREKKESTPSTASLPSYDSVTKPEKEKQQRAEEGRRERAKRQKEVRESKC
# Sequence (Q07699 whole entry partner, looked up): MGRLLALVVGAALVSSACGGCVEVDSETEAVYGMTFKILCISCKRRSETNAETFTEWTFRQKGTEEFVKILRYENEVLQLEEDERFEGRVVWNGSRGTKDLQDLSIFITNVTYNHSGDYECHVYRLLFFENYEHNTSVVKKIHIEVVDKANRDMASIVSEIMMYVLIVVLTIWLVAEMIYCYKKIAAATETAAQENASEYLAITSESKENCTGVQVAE
# protocol: Sodium Influx Assay (Flux), NaV1.6;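 further: Tetracycline-induced cells, compounds applied for one hour at room temperature with modulators holding channels open, IC50 from percent inhibition of sodium influx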
# Assay type: cell-based
# cond: Trex HEK293 cells, ANG2 dye, inactivated state
Structures can show the parent of a compound that is named as a salt.
Listing of recorded pIC50 by entry.
Lab note: report pIC50 as minus log10 of the concentration in molar units, number only.

For orientation, consider the following solved cases.
QUERY: Return the recorded pIC50 value; entry: `C[C@H](Nc1cc(F)c(S(=O)(=O)Nc2nccs2)cc1Cl)C1CCCCC1`
RESULT: 5.52

QUERY: Return the recorded pIC50 value; entry: `C[C@@H](Oc1cc(F)c(S(=O)(=O)Nc2nccs2)cc1Cl)c1ccccc1F`
RESULT: 5.63

QUERY: Return the recorded pIC50 value; entry: `O=S(=O)(Nc1ccncn1)c1cc(Cl)c(N[C@H](c2cc(Cl)ccc2F)C(F)(F)F)cc1F`
RESULT: 6.67

QUERY: Return the recorded pIC50 value; entry: `O=S(=O)(Nc1ccncn1)c1cc(Cl)c(NC2(c3ccccc3F)CC2)cc1F`
RESULT: 5.71

QUERY: Return the recorded pIC50 value; entry: CN(Cc1cccc(F)c1CNc1ccc(S(=O)(=O)Nc2cscn2)c(F)c1F)C(C)(C)C [Example 203, 2,2,2-trifluoroacetate]
RESULT: 6.65

***
QUERY: Return the recorded pIC50 value; entry: O=S(=O)(Nc1cscn1)c1c(F)cc(NCc2c(F)cccc2CN2CCC23COC3)cc1F [Example 157, formate]
RESULT: 5.63

QUERY: Return the recorded pIC50 value; entry: `CC(C)C[C@H](Nc1cc(F)c(S(=O)(=O)Nc2nccs2)cc1Cl)c1ccccc1`
RESULT: 6.67

QUERY: Return the recorded pIC50 value; entry: CCOC1(C)CN(Cc2cccc(F)c2CNc2cc(F)c(S(=O)(=O)Nc3cscn3)c(F)c2)C1 [Example 152, formate]
RESULT: 6.80

QUERY: Return the recorded pIC50 value; entry: `O=S(=O)(Nc1cscn1)c1cc(Cl)c(OC2(c3ccccc3)CC2)cc1F`
RESULT: 5.33

QUERY: Return the recorded pIC50 value; entry: `C[C@H](Nc1cc(F)c(S(=O)(=O)Nc2ncco2)cc1Cl)c1cc(F)ccc1F`
RESULT: 5.82

QUERY: Return the recorded pIC50 value; entry: C[C@H](Nc1cc(F)c(S(=O)(=O)Nc2cscn2)c(F)c1)c1cc(Cl)ccc1F [Example 207, 2,2,2-trifluoroacetate]
RESULT: 6.38

Attribution: patent US11174268B2
